experimental-endpoint: logP
Give your answer as a number; write no unit.

CCN(CC)CCNC(=O)c1ccc(N)cc1    0.82
CN(C)CCCN1c2ccccc2Sc2ccccc21    4.64
COc1ccc2c(c1)-c1c(ccc(OC)c1O)CC(CCc1ccccc1)N(C)CC2 (stereo not drawn)    4.85

Which logP value belongs to C=CCN1CCCC1CNC(=O)c1cc(S(=O)(=O)NC)c(N)cc1OC (stereo not drawn) ?
1.69

What value of measured logP is listed for CCN(CC)CCCN(c1ccccc1)C1Cc2ccccc2C1 ?
4.86

Using the record for CN1CCCCC1CCN1c2ccccc2Sc2ccc(S(C)(=O)=O)cc21 (stereo not drawn) , report its logP.
4.45

# lookup: logP of CC(C)NCCCC1(C(N)=O)c2ccccc2-c2ccccc21
3.11

Dear colleague, I am looking for the recorded logP of the following compound: O=C(NCC1CCCCN1)c1cc(OCC(F)(F)F)ccc1OCC(F)(F)F (stereo not drawn)
3.78

Field request: logP | item: C=CCN1CCCC1CNC(=O)c1cc(S(N)(=O)=O)cc(OC)c1OC (stereo not drawn)
1.47

Form field: reported logP of CC(C)(C)c1cc(C(O)CCC2CCNCC2)c2ccccc2n1 (stereo not drawn)
3.63

Value lookup for logP; key = CNC(=O)Nc1c(OCCN2CCCC2)c(OC)c2occc2c1OC
1.38

Item under review: CC(C)NCC(O)COc1cccc2c1N(C(=O)c1cccnc1)CCC2 (stereo not drawn) . Reported logP?
1.63

Record request: logP value, item CN1CCN(CCCN2c3ccccc3Sc3ccccc32)CC1
4
